TARGET DESC: T1, TOM1L2 1-153 VHS (domain begin residue: 1, domain end residue: 153), Q6ZVM7
T1 chain: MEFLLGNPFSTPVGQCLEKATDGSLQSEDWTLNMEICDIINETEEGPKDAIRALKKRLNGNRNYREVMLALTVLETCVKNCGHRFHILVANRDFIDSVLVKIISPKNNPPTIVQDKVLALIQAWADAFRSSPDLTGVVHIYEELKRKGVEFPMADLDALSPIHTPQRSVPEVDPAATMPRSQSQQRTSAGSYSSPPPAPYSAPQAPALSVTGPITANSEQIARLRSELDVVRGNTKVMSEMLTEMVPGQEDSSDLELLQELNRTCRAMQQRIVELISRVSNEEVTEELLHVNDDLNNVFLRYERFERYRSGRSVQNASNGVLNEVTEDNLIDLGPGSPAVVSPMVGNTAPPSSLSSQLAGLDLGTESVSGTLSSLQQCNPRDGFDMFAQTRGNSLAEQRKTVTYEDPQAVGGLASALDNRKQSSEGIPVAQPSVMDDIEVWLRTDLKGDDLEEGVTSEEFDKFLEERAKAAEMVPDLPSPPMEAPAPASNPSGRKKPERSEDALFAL
METHOD SUMMARY: phage ELISA signal ratio (GST-PRM binding over GST background); higher = stronger binding of peptide-phage to the PRM
Cut-off 9 on phage ELISA signal ratio, inclusive. At or above means yes; below means no.

INSERT INTO measurements (binder, label_value) VALUES
  ('MMFAGLGTPNPYEVTT', 'yes'),
  ('KWNDDDWWTYFVSQVE', 'yes'),
  ('IEIPWTQEFIQHWTQG', 'yes'),
  ('YQDWDWDPEMKRMVVS', 'no'),
  ('QTPLEAFWEAYDSISW', 'yes'),
  ('LPPHWFDEMYSITAMY', 'no');

// provenance: the supplement of paper PMC7724964
